Measured inhibition values are reported for all entries that follow.
# test system: Mothers against decapentaplegic homolog 3 (Homo sapiens)
# test: blockers of Smad3 binding to FoxH1 – biochemical, TR-FRET, primary screen (AID 630);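 also: 0% = Smad3 plus labelled peptide maximal FRET and 100% = peptide-only background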
# condition details: TR-FRET Smad3/Dy647-FoxH1 peptide binding, europium anti-His; at 25 µM; active compounds read high
Among all 88,000 compounds or so, about 260 (0.3%) were called active. Only a selection was taken, and actives are over-represented in it overall.
metric name: inhibition (%)

[[record]]
compound = "Cc1ccc(SC(=O)COc2ccc(C)c(C)c2)cc1"
test_system = "Mothers against decapentaplegic homolog 3 (Homo sapiens)"
measurement_unit = "%"
observed_value = -5.83

[[record]]
compound = "Cc1cccc(-n2c(Cc3cc(=O)[nH]c(=O)[nH]3)nnc2SC(C)C)c1"
test_system = "Mothers against decapentaplegic homolog 3 (Homo sapiens)"
measurement_unit = "%"
observed_value = 62

[[record]]
compound = "CCOC(=O)C(C)n1cnc2sc(C)c(C)c2c1=O (stereo not given)"
test_system = "Mothers against decapentaplegic homolog 3 (Homo sapiens)"
measurement_unit = "%"
observed_value = 5.75

[[record]]
compound = "CC(C)CCNC(=O)Cn1c(=O)oc2cc(S(=O)(=O)N3CC(C)CC(C)C3)ccc21 (stereo not given)"
test_system = "Mothers against decapentaplegic homolog 3 (Homo sapiens)"
measurement_unit = "%"
observed_value = 7.82

[[record]]
compound = "CS(=O)(=O)N(CC(=O)N1CCN(c2ccc(F)cc2)CC1)C1CCCCC1"
test_system = "Mothers against decapentaplegic homolog 3 (Homo sapiens)"
measurement_unit = "%"
observed_value = -8.5

[[record]]
compound = "Cc1cc(C)n(-c2cc(Oc3ccccc3)ncn2)n1"
test_system = "Mothers against decapentaplegic homolog 3 (Homo sapiens)"
measurement_unit = "%"
observed_value = 3.36

[[record]]
compound = "C[C@H](CCC(=O)O)[C@@H]1CC[C@@H]2[C@H]3CC[C@H]4C[C@@H](O)CC[C@]4(C)[C@@H]3C[C@H](O)[C@]21C"
test_system = "Mothers against decapentaplegic homolog 3 (Homo sapiens)"
measurement_unit = "%"
observed_value = -5.18

[[record]]
compound = "Cc1cccc(C)c1NC(=O)CSc1nnc(-c2ccccc2)n1Cc1ccc2c(c1)OCO2"
test_system = "Mothers against decapentaplegic homolog 3 (Homo sapiens)"
measurement_unit = "%"
observed_value = 14.3

[[record]]
compound = "Cn1cnc([N+](=O)[O-])c1Nc1ccccc1O"
test_system = "Mothers against decapentaplegic homolog 3 (Homo sapiens)"
measurement_unit = "%"
observed_value = -0.46

[[record]]
compound = "CCn1c(SCC(=O)Nc2ccc(OC)c(OC)c2)nnc1-c1c[nH]c2ccccc12"
test_system = "Mothers against decapentaplegic homolog 3 (Homo sapiens)"
measurement_unit = "%"
observed_value = -6.68


====

# test system: Mothers against decapentaplegic homolog 3 (Homo sapiens) (UniProt P84022)
# Sequence (P84022 whole entry, looked up): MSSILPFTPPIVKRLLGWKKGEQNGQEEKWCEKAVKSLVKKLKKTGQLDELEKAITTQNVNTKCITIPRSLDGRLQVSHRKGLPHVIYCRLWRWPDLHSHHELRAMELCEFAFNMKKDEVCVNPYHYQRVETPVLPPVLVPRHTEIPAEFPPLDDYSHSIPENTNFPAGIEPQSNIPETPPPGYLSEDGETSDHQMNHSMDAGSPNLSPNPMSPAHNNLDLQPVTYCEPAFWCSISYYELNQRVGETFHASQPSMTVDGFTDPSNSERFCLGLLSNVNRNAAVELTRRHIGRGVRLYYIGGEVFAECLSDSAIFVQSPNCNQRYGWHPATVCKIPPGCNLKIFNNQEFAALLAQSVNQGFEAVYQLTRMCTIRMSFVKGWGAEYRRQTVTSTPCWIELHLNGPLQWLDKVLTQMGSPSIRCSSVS
# test: blockers of Smad3 binding to FoxH1 – biochemical, TR-FRET, primary screen (AID 630);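 also: 0% = Smad3 plus labelled peptide maximal FRET and 100% = peptide-only background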
# condition details: TR-FRET Smad3/Dy647-FoxH1 peptide binding, europium anti-His; at 25 µM
Hit rate of the full screen: of about 88,000 compounds, about 260 (0.3%) were called active.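 Rule for the calls: active = compounds that reduce the energy-transfer binding signal between the protein and its labelled peptide by more than half; inactive = the rest.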 For the sample, actives were picked, then their nearest neighbours and some compounds at random.
Classes used: active, inactive

[[record]]
compound = "COc1cc(N2CCCC2)c(OC)cc1/C=C(/C#N)c1cccc(Br)c1"
class_label = "inactive"

[[record]]
compound = "Cn1nc(-c2ccccc2)c(-c2nc(-c3ccc(Cl)cc3)no2)c1Cl"
class_label = "inactive"

[[record]]
compound = "Cc1ccc(S(=O)(=O)N(c2cccc(C)c2)C2CCS(=O)(=O)C2)cc1 (centres undefined)"
class_label = "inactive"

[[record]]
compound = "Cc1cc(C)c(S(=O)(=O)N2C=CC(C(F)(F)F)=NCC2)c(C)c1"
class_label = "inactive"

[[record]]
compound = "Cc1ccccc1-n1c(C)cc(/C=C2\\NC(=O)NC2=O)c1C"
class_label = "inactive"

[[record]]
compound = "Cc1cccc(NC(=O)CSc2nc3c(c(=O)[nH]2)CCCC3)c1C"
class_label = "inactive"

[[record]]
compound = "O=C(O)[C@@H]1CS[C@]2(CCCN(Cc3ccccc3)C2)N1"
class_label = "inactive"

[[record]]
compound = "COCCOCCn1cnc2ccccc21"
class_label = "inactive"

[[record]]
compound = "Cc1c(CCO)c(=O)n(-c2ccccc2)n1S(=O)(=O)c1ccc(F)cc1"
class_label = "inactive"

[[record]]
compound = "Cc1cc(N/C=C\\C(=O)c2ccc(Cl)c(Cl)c2)no1"
class_label = "inactive"

[[record]]
compound = "Cc1nc(NC(=O)C2CCCCC2)sc1C"
class_label = "inactive"

[[record]]
compound = "Cc1cc2cc(CNC(=O)c3cccs3)ccc2[nH]1"
class_label = "inactive"

[[record]]
compound = "COc1ccc2c(c1)cc1n2CCN=C1NN"
class_label = "inactive"

[[record]]
compound = "COC(=O)C1=C(C(=O)c2ccc(C)cc2)C(c2ccccc2)n2nnnc2N1 (centres undefined)"
class_label = "inactive"

[[record]]
compound = "C=CCN(C(=O)Nc1ccc2oc(C)nc2c1)c1ccccc1"
class_label = "inactive"

[[record]]
compound = "COc1ccc(NC(=S)N2N=CCC2c2ccccc2)cc1 (centres undefined)"
class_label = "inactive"

[[record]]
compound = "Cn1ncc2c(Nc3cccc4ccccc34)ncnc21"
class_label = "inactive"

[[record]]
compound = "c1ccc(CC2CCN(c3nc4ccccc4n4cnnc34)CC2)cc1"
class_label = "inactive"

[[record]]
compound = "O=C(O)c1nn(-c2ccc(Cl)cc2)c2c1C(=O)c1ccccc1C2=O"
class_label = "active"

[[record]]
compound = "CC(C)OC(=O)c1c(NC(=O)c2ccco2)sc2c1CCCC2"
class_label = "inactive"

[[record]]
compound = "CCC(c1nnnn1C1CCCC1)N1CCN(C(=O)c2ccco2)CC1 (centres undefined)"
class_label = "active"

[[record]]
compound = "COc1ccc(-c2nc3ccccc3n2CCC(C)C)cc1OC"
class_label = "inactive"

[[record]]
compound = "COc1cccc(N=c2oc3c(C)ncc(CO)c3cc2C(N)=O)c1"
class_label = "inactive"

[[record]]
compound = "O=C(Cc1c(O)c2ccccc2[nH]c1=O)NCc1ccccc1"
class_label = "inactive"

